- SYSTEM TESTED: Avi-KRAS G12V (2-169) GTP/RAF1 RBD-3xFLAG (51-131) (Homo sapiens, UniProt P01116, G12V)
- Construct: Avi-KRAS G12V (2-169)
- Sequence (P01116 2-169 isoform P01116-2 G12V): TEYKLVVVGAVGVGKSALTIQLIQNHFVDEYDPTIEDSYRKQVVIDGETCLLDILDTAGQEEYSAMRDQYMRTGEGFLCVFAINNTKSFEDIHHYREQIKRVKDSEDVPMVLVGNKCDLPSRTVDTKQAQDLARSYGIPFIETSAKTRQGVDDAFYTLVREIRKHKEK
- METHOD: Raf1-KRAS G12V-GTP disruption HTRF assay (Biological Example 3)
- Format: binding
- MEASUREMENT CONDITIONS: KRAS G12V, GTP-loaded
READOUT: IC50

| MOLECULE | READOUT | RESULT |
| --- | --- | --- |
| CCN(c1nc(OC[C@@]23CCCN2C[C@H](F)C3)nc2c(F)c(-c3ccc(F)c4sc(N)c(C#N)c34)c(C(F)(F)F)cc12)[C@@H]1CN2C(=O)N(C)C[C@]2(C)C1 (atropisomer, axis not shown) | IC50 | 100 to 1000 nM |

Lookup: Tell me the measured IC50 of CC(=O)N1CC[C@H](N(CCF)c2nc(OC[C@@]34CCCN3C[C@H](F)C4)nc3c(F)c(-c4ccc(F)c5sc(N)c(C#N)c45)c(C(F)(F)F)cc23)C1 (atropisomer, axis not shown) , please.
Found: 100 to 1000 nM

Lookup: Another molecule: CCN(c1nc(OC[C@@]23CCCN2C[C@H](F)C3)nc2c(F)c(-c3ccc(F)c4sc(N)c(C#N)c34)c(C(F)(F)F)cc12)[C@H]1C[C@@H](C)N(C(=O)C2COC2)C1 (atropisomer, axis not shown)
Found: 100 to 1000 nM

Lookup: Another molecule: CCN(c1nc(OC[C@@]23CCCN2C[C@H](F)C3)nc2c(F)c(-c3ccc(F)c4sc(N)c(C#N)c34)c(C(F)(F)F)cc12)[C@H]1CCN(C(=O)C(C)C)C1 (single isomer, unassigned) [Compound 469]
Found: ≤ 100 nM
